- assay.system: MKK4(m) (Mus musculus)
- Sequence (P47809 whole entry): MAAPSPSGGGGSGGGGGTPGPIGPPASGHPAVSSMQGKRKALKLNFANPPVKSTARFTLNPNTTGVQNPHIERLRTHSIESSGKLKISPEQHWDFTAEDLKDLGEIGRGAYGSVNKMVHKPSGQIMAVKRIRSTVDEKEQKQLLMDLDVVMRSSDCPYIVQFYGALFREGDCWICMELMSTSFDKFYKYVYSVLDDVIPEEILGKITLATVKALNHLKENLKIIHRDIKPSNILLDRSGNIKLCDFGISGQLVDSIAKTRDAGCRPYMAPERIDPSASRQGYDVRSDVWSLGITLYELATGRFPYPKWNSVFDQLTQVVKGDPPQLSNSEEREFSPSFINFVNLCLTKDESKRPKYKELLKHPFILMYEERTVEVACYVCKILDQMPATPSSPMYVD
- assay.protocol: Protein kinase selectivity panel
- Assay type: biochemical
- measurement.context: 1.0 μM compound, 10 μM ATP
Catalogue of Activity at Protein Kinase Assays (% of control), MKK4(m) values
recorded.endpoint: Activity at Protein Kinase Assays (% of control), MKK4(m)

# molecule, measured.result
data = [
    ("O=C1NC(=O)C2=C1c1cn(c3ccccc13)CCCc1ccc(c(N3CCCC3)n1)CCCn1cc2c2ccccc21 [Cpd 7]", "113 % of control"),
    ("CN(C)c1cc2cc(n1)CCCn1cc(c3ccccc31)C1=C(C(=O)NC1=O)c1cn(c3ccccc13)CCC2 [Cpd 2]", "119 % of control"),
    ("CN(C)c1nc2ccc1CCCCn1cc(c3ccccc31)C1=C(C(=O)NC1=O)c1cn(c3ccccc13)CCC2 [Cpd 1]", "130 % of control"),
    ("O=C1NC(=O)C2=C1c1cn(c3ccccc13)CCCc1cc(nc(N3CCCC3)c1)CCCn1cc2c2ccccc21 [Cpd 6]", "119 % of control"),
]
